FYI, the data here is from PubChem BioAssay (NCI).

Item-by-item account of TGI
Tested on: NCI-H23 lung
PROCEDURE TEXT: NCI tumour cell line growth inhibition, 48 h

- MOLECULE: "COc1cc([C@@H]2c3cc4c(cc3[C@@H](NCc3cccc(C#N)c3)C3COC(=O)[C@@H]32)OCO4)cc(OC)c1O (stereo not given in full)"
  RESULT COMPARATOR: "="
  TGI (µM): 1.76
- MOLECULE: "COC(=O)/C=C/[C@@H]1[C@H](C)N1S(=O)(=O)c1ccc(C)cc1 (stereo not given in full)"
  RESULT COMPARATOR: ">"
  TGI (µM): 100
- MOLECULE: "CC(Cn1c2c(c3cc(O)ccc31)CCc1ccc(O)cc1-2)N(C)C (stereo not given)"
  RESULT COMPARATOR: "="
  TGI (µM): 41.2
- MOLECULE: "COc1ccc2nc3ccc(OC)cc3c(SCCCl)c2c1"
  RESULT COMPARATOR: ">"
  TGI (µM): 100
- MOLECULE: "COc1ccc(-c2nc(Nc3ccccc3)sc2Cc2sc(Nc3ccccc3)nc2-c2ccc(OC)cc2)cc1"
  RESULT COMPARATOR: ">"
  TGI (µM): 100

----------
System: SK-MEL-5 melanoma
PROCEDURE TEXT: NCI tumour cell line growth inhibition, 48 h
Item-by-item account of TGI

- MOLECULE: "CSc1nc(=O)cnn1C"
  TGI: "> 100 µM"
- MOLECULE: "O=C1NCN(c2ccccc2)C12CCN(CC1COc3ccccc3O1)CC2 (stereo unspecified)"
  TGI: "> 100 µM"
- MOLECULE: "CCCCCCCCCCCCOCC1(COCCCCCCCCCCCC)COC(c2ccc(N)cc2)OC1"
  TGI: "> 100 µM"
- MOLECULE: "COc1cc(C2S/C(=C/c3ccccc3)C(=O)N2c2cccc(NC(C)=O)c2)cc(OC)c1OC (stereo unspecified)"
  TGI: "> 100 µM"
- MOLECULE: "COc1cc2cc(Oc3cccc(NC(=O)Nc4cc(C(F)(F)F)cc(C(F)(F)F)c4)c3)c(C)nc2cc1OC"
  TGI: "3.28 µM"
- MOLECULE: "O=C1Oc2ccccc2C(=O)/C1=C/N1C(=O)CNC1=S"
  TGI: "> 100 µM"
- MOLECULE: "Cc1ccc(S(=O)(=O)N2CCNCCN(S(=O)(=O)c3ccc(C)cc3)CCNCC2)cc1"
  TGI: "29.9 µM"
- MOLECULE: "CN=c1sc2nc(C#N)c(C#N)nc2n1C"
  TGI: "35.4 µM"
- MOLECULE: "CC[C@H]1OC(=O)[C@H](C)[C@@H](O[C@H]2C[C@@](C)(OC)[C@@H](O)[C@H](C)O2)[C@H](C)[C@@H](O[C@@H]2O[C@H](C)C[C@H](N(C)C)[C@H]2O)[C@](C)(OC)C/C(C)=C2/O[C@@]1(C)C=C2C"
  TGI: "3.21 µM"
- MOLECULE: "COC(=O)[C@@](NC(=O)OCc1ccccc1)([C@H](C)O)C(F)(F)F"
  TGI: "> 100 µM"
- MOLECULE: "O=C(O)CCCCC1CCSS1 (stereo unspecified)"
  TGI: "> 100 µM"

----------
Test system: HCC-2998 colon
PROCEDURE TEXT: NCI tumour cell line growth inhibition, 48 h
OBSERVED PROPERTY: TGI

- COMPOUND: "CCOC(=O)c1c(CN2CCN(C)CC2)nc2ccc(Cl)cc2c1-c1ccccc1"
  EXPERIMENTAL VALUE: "4.4 µM"
- COMPOUND: "Cc1ccc2ccc(-c3ccccc3)c3c2c1C(=O)c1ccccc1C3=O"
  EXPERIMENTAL VALUE: "> 100 µM"
- COMPOUND: "CC(C)(C)O/N=C/c1cc(NC(=S)c2ccsc2)ccc1Cl"
  EXPERIMENTAL VALUE: "27.6 µM"
- COMPOUND: "O=C1Nc2ccc3c(c2/C1=C\\c1cc2c(cc1Br)OCO2)OCO3"
  EXPERIMENTAL VALUE: "> 100 µM"
- COMPOUND: "O=C1OC([C@H](O)c2cccnc2)c2ccccc21 (stereo partly specified)"
  EXPERIMENTAL VALUE: "> 10 µM"
- COMPOUND: "CCCCOC/N=C(/N)NC#N"
  EXPERIMENTAL VALUE: "> 100 µM"

----------
Item-by-item account of GI50
Tested on: EKVX NSCLC
PROCEDURE TEXT: NCI tumour cell line growth inhibition, 48 h
OBSERVED PROPERTY: GI50

- MOLECULE: "CCn1c(-c2nonc2N)nc2cnc(Oc3cccc(NC(=O)c4ccc(N(C)C)cc4)c3)cc21"
  EXPERIMENTAL VALUE: "2.87 µM"
- MOLECULE: "CC(O)[C@H](NC(=O)N[C@@H](CC(N)=O)c1nc(N2CCNCC2)no1)C(=O)O (some centres not stated)"
  EXPERIMENTAL VALUE: "> 100 µM"
- MOLECULE: "COc1cc(-c2nn(-c3cccc(NC(=O)CCN4CCN(c5ccccc5)CC4)c3)cc2-c2ccncc2)ccc1Cl"
  EXPERIMENTAL VALUE: "3.31 µM"
- MOLECULE: "COCC(C(=O)OC1C/C=C/C=C/C(=O)OC(C(C)C(O)C(C)CCC(OC(=O)C(C)N(C)C)C(C)C(OC(C)=O)C(C)/C=C/N(C)C=O)C/C=C/C(OC)CC(C)C/C=C(\\C)C(OC)CCC(C)C(O)C1C)N(C)C (configuration not stated)"
  EXPERIMENTAL VALUE: "< 0.0001 µM"
- MOLECULE: "CC[C@H]1OC(=O)[C@H](C)[C@@H](O[C@H]2C[C@@](C)(OC)[C@@H](O)[C@H](C)O2)[C@H](C)[C@@H](O[C@@H]2O[C@H](C)C[C@H](N(C)C)[C@H]2O)[C@](C)(OC)C/C(C)=C2/O[C@@]1(C)C=C2C"
  EXPERIMENTAL VALUE: "1.71 µM"
- MOLECULE: "COc1ccc(-c2c(N)noc2-c2cc(OC)c3c(c2)OCCO3)cc1"
  EXPERIMENTAL VALUE: "0.046 µM"
- MOLECULE: "CC1(C)C2CCC13C(=O)C1OC3(C2)C2C(=O)c3c(ccc4c3ccc3ccccc34)C(=O)C12 (configuration not stated)"
  EXPERIMENTAL VALUE: "> 66.3 µM"

----------
Tested on: M14 melanoma
PROCEDURE TEXT: NCI tumour cell line growth inhibition, 48 h
OBSERVED PROPERTY: GI50

- COMPOUND: "CCOC(=O)c1c(CN2CCN(C)CC2)nc2ccc(Cl)cc2c1-c1ccccc1"
  EXPERIMENTAL VALUE: "1.91 µM"
- COMPOUND: "C=C1C[C@@H]2O[C@H]3[C@H]4[C@@H](CC[C@@](C)(OC(=O)CCC)[C@H]42)[C@@H](C)C(=O)O[C@@]3(C)CC[C@H]1OO"
  EXPERIMENTAL VALUE: "23.7 µM"
- COMPOUND: "CCOC1Oc2ccc(C)cc2C(=O)/C1=C\\Nc1ccc(S(N)(=O)=O)cc1 (stereo not given)"
  EXPERIMENTAL VALUE: "9.32 µM"
- COMPOUND: "CN(C)c1ccc(-c2ccc(-c3ccc(C(=N)N)cn3)o2)cc1"
  EXPERIMENTAL VALUE: "1.85 µM"
- COMPOUND: "COc1ccc(/C=C/C(=O)c2cc3c(N)c(C(=O)Nc4ccc(OC)cc4)sc3nc2C)cc1"
  EXPERIMENTAL VALUE: "0.19 µM"
- COMPOUND: "Cc1cc(NN=C(c2ccc(O)cc2)c2ccc(O)cc2)c([N+](=O)[O-])cc1[N+](=O)[O-]"
  EXPERIMENTAL VALUE: "4.5 µM"
- COMPOUND: "Nn1c(-c2ccc(Cl)cc2)nc2c(-c3ccc(Cl)cc3)nc3ccc(Cl)cc3c2c1=O"
  EXPERIMENTAL VALUE: "15.1 µM"
- COMPOUND: "O=[N+]([O-])/C=C/c1ccc(Cl)cc1[N+](=O)[O-]"
  EXPERIMENTAL VALUE: "4.42 µM"
- COMPOUND: "COc1cc(-c2nn(-c3cccc(NC(=O)CCNc4ccc(N5CCOCC5)cc4)c3)cc2-c2ccncc2)ccc1Cl"
  EXPERIMENTAL VALUE: "2.58 µM"
- COMPOUND: "CC1(C)N=C(N)N=C(N)N1c1cccc(CCc2ccccc2)c1"
  EXPERIMENTAL VALUE: "1.29 µM"
- COMPOUND: "N#[N+]c1ccc(Nc2ccccc2)cc1"
  EXPERIMENTAL VALUE: "> 50 mg/L"
- COMPOUND: "O=C1Nc2ccc3c(c2/C1=C\\c1cc2c(cc1Br)OCO2)OCO3"
  EXPERIMENTAL VALUE: "0.341 µM"
- COMPOUND: "COc1ccc(-c2csc(Nc3cccc(-c4csc(C)n4)c3)n2)cc1"
  EXPERIMENTAL VALUE: "2.79 µM"
- COMPOUND: "CCOC(=O)/C(=C\\c1ccc2ccccc2c1)P(=O)(OCC)OCC"
  EXPERIMENTAL VALUE: "2.18 µM"
- COMPOUND: "O=CN1N=C(c2cccc(Nc3ccnc4cc(Cl)ccc34)c2)CC1c1ccc(Cl)cc1 (stereo not given)"
  EXPERIMENTAL VALUE: "1.04 µM"
- COMPOUND: "COc1cccc(-c2nc3sccn3c2-c2ccnc(NCCCNS(=O)(=O)c3ccccc3)c2)c1"
  EXPERIMENTAL VALUE: "3.36 µM"
- COMPOUND: "CC(=O)Oc1cc2cnc3c4cc(OC(C)=O)c(OC(C)=O)cc4ccc3c2cc1OC(C)=O"
  EXPERIMENTAL VALUE: "1.78 µM"
- COMPOUND: "C#C[C@]1(O)CC[C@H]2[C@@H]3CC=C4c5nc(N)sc5CC[C@]4(C)[C@H]3CC[C@@]21C"
  EXPERIMENTAL VALUE: "2.75 µM"
- COMPOUND: "COc1cc(NC2CCCCC2O)c2nc(-c3ccc(Cl)cc3)ccc2c1 (stereo not given)"
  EXPERIMENTAL VALUE: "9.23 µM"
- COMPOUND: "COc1cc2cc(Oc3cccc(NC(=O)Nc4cc(C(F)(F)F)cc(C(F)(F)F)c4)c3)c(C)nc2cc1OC"
  EXPERIMENTAL VALUE: "1 µM"
